Test system: human esophageal carcinoma cell line OE33
procedureDetails: MTT Cell Proliferation Assay in OE33
Type: cell-based
cond: OE33 cell line, MTT, 72 hours post-treatment; read-out: IC50 (concentration of agent that inhibits cell growth by 50% compared to the control cells)
measurementName: pIC50
One number for each entry, as −log10 of the molar value.

Would you kindly share the measured pIC50 for "[Ga+3].[O-]c1cccc2cccnc12.[O-]c1cccc2cccnc12.[O-]c1cccc2cccnc12" ?
5.51

###

Test system: human gastric cancer cell line NCI-N87
procedureDetails: MTT Cell Proliferation Assay in NCI-N87
Assay type: cell-based
cond: NCI-N87, four parameter-logistic fit; X axis of FIG. 1 in nM; read-out: IC50 (Value "C" in FIG. 1)
Description: To test the activities of tris(8-quinolinolato)gallium(III), ATCC's MTT Cell Proliferation Assay® was performed using human gastric cancer cell line NCI-N87 (differentiated carcinoma). Stock cultures were allowed to grow to 70-80% confluence for this study. The anti-proliferative activity of tris(8-quinolinolato)gallium(III), against the indicated cell line was evaluated in vitro using the ATCC's MTT Cell Proliferation Assay (Catalog No. 30-1010K). […]
measurementName: IC50

Quick check: IC50 on human gastric cancer cell line NCI-N87, item [Ga+3].[O-]c1cccc2cccnc12.[O-]c1cccc2cccnc12.[O-]c1cccc2cccnc12 [tris(8-quinolinolato)gallium(III)] ?
8420 nM

###

Test system: human gastric cancer cell line NCI-N87
procedureDetails: MTT Cell Proliferation Assay in NCI-N87
Format: cell-based
cond: NCI-N87 cell line, MTT, 72 hours post-treatment; read-out: IC50 (concentration of agent that inhibits cell growth by 50% compared to the control cells)
measurementName: IC50 (µM)
Give bare numbers, in µM.

Would you kindly share the measured IC50 for [Ga+3].[O-]c1cccc2cccnc12.[O-]c1cccc2cccnc12.[O-]c1cccc2cccnc12 [tris(8-quinolinolato)gallium(III)] ?
8.42
